Sourced from PubChem BioAssay (NCATS)

assay: Viability qHTS for spleen associated tyrosine kinase inhibitor (SYKi) drug resistant MV4-11 cells (AID 1963824); details: SYKi-resistant MV4-11 viability, CellTiter-Glo, 72 h; series mostly up to 45 µM; note: nearly all actives have a fitted effect of over 35% in size
Records with an inconclusive call do not appear. Calls of active or inactive are those of the source. Calls come from the whole dose curve; as a rule, active = well fitted cell-killing curve with a large enough effect; inconclusive = small, poorly fitted or top-dose-only effect, or effect the other way; inactive = no such curve, though single readings can be large or run the other way.
Can you answer with just one of these options? True for active, False for inactive

# molecule, class_label
data = [
    ("COc1ccc(CC2NCCc3c2[nH]c2ccc(C)cc32)cc1OC (stereo not drawn)", "True"),
]

Query: Per the records of this test, what outcome belongs to `COc1cc(C(=O)N2CCCCCCC2)cc(OC)c1OC` ?
Result: False

Query: Per the records of this test, what outcome belongs to CCN(CC)C(=O)Nc1ccc(OCC(O)CNC(C)(C)C)c(C(C)=O)c1 (stereo not drawn) ?
Result: False

Query: Per the records of this test, what outcome belongs to `Cc1ccc2nc(N)[nH]c(=O)c2c1Sc1ccncc1` ?
Result: True
